# SYSTEM_UNDER_TEST: T1, TNFR1 (Homo sapiens, UniProt P19438)
# T1 chain: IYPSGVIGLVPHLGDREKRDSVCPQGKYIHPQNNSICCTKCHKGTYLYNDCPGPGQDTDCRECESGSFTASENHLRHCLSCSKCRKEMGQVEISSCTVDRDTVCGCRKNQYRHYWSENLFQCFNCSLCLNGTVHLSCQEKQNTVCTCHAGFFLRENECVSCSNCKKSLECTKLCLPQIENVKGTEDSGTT
# EXPERIMENT: yeast display SC50
REPORTED_ENDPOINT: apparent Kd (screen)
Number first, unit second.

1) V74Y (designed binder) SMEEEVEKAAKEYEKKKKEAIEKHLEKLKAKDKEAAERFLKELEEAAKEYAKDEAKTMSEEEAKRRAKKYKEKYLLSELSEEEQKEIKEAEEKLVRTILKYVEEAAK = 9.41 nM

Here is the next item to consider.
Query :: Quick one: apparent Kd (screen) for R38M (designed binder) SMEEEVEKAAKEYEKKKKEAIEKHLEKLKAKDKEAAEMFLKELEEAAKEYAKDEAKTMSEEEAKRRAKKYKEKVLLSELSEEEQKEIKEAEEKLVRTILKYVEEAAK ?
Result :: 0.869 nM

Just for reference, paper PMC12416549 is where these values come from.
